B1: CPEB3 Ribozyme (parent)
chain: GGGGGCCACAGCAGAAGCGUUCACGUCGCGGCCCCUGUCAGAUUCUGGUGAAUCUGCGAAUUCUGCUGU

variants of: B1; test: self-cleavage, relative activity (ratio to wild type); higher = more cleavage; co-transcriptional
Recorded self-cleavage values for a group of variants are listed next.
TEST_READOUT: self-cleavage

> print(dat)
    mutant.designation  experimental.result
 1            G3A U62C                0.357
 2           U46G A51U                    1
 3            G4U U44C                0.552
 4           C66A G68C                 0.84
 5           A15U C34U                0.891
 6           U21G U62A                0.316
 7           C45A G65C                0.533
 8            C6U C54A                0.847
 9           G25U G31A                0.163
10           A23U G28U                0.148
11           A15G C35G                0.457
12           U20A A42G               0.0639
13           G48U C66U                0.978
14            G5U C39U                0.101
15           A51U U55A                0.696
16           G25C A59G                0.169
17            C7U G31U                0.365
18           U21G C57U                0.253
19           G14C G65A                0.291
20           G19A C22G                0.148
21            C7G G68A                0.824
22           C35U U43C                0.866
23           C34G U67G                0.894
24           A52G C63U                    1
25           A40G U49A                0.969
26           G17A U44G                0.302
27            C6G U44G                0.183
28           C18A C45G                0.179
29           G14A C18A                0.163
30            G3U U49C                0.176
31           C29G G41A                0.236
32           C24U A52C                0.791
33           G14U G31U                0.164
34           C24A C39G                0.682

Values compiled from the RNAGym collection of RNA variant scans (doi:10.7554/elife.80360).
